Below is a list of entries, each paired with its recorded viability at 28.5 h, 10 µM value.
Test: in vitro
Settings: human, hela cells, % viability
The answer is to be given in %; state only the numeric part.

# annotated cases, reported viability at 28.5 h, 10 µM shown
// query Using the record for Clc1ccc(CN2CCC(Oc3cncc(OCC4COc5ccccc5O4)n3)C2)cc1Cl (stereo not drawn) , report its viability at 28.5 h, 10 µM.
// result 107

// query Please do the same for Cc1noc(NS(=O)(=O)c2ccc(NC(=O)C3COc4ccccc4O3)cc2)c1C (stereo not drawn) as well.
// result 90.1

// query Item: CCOc1nccnc1N1CCNCC1 [CBK001899G]
// result 93.1

// query Now try O=C(NCCc1ccc(F)cc1)C1CN(C(=O)c2ccc3nsnc3c2)C1 .
// result 95.8

// query Cool, now COc1ccc(-c2n[nH]c(=S)n2CCC(=O)NCc2ccc(CN3CCCCC3)cc2)cc1
// result 94.5

Next:
// query Which viability at 28.5 h, 10 µM is listed for COc1ccc(Oc2cncc(OC3CCN(CC(N)=O)C3)n2)cc1OC (stereo not drawn) ?
// result 93.8

---

Assay: in vitro
Details: human, hela cells, % viability
Measured viability at 28.5 h, 10 µM accompanies every entry in the list below.
Kindly provide the numeric value in % only, without the unit symbol.

// query Which viability at 28.5 h, 10 µM value is on record for O=C(c1ccc(F)cc1)C1CCN(Cc2cc(=O)[nH]c(=O)[nH]2)CC1 ?
// result 91.8

// query Next up: COc1ccc(OCCN(C)c2cnn(-c3ccc(C(=O)O)cc3)c(=O)c2Cl)cc1
// result 104

// query Ok, now COc1cc(Nc2cc(-c3ccc4c(c3)OCO4)ncn2)cc(OC)c1OC
// result 101

// query # iterate: CCc1noc(C)c1C(=O)NCC1CCCCN1CC (stereo not drawn)
// result 97.3

// query // query: COc1ccc(NC(=O)CSc2cnn[nH]2)cc1OC
// result 102

// query Cool, now Cc1cc(-c2ccc(=O)n(CCNC(=O)C3CCC3)n2)c(C)o1
// result 110

// query Then CCOC(=O)c1sc(NS(=O)(=O)c2cccc3cccnc23)nc1C ?
// result 91.6

// query Request: O=C(CCc1ccccc1)N1CCCC1c1cccc(Cc2ccccc2F)n1 (stereo not drawn)
// result 118

// query Ok, now CN1CCN(Cc2c(-c3ccc(F)cc3)[nH]c3ncccc23)CC1
// result 85.4

---

Property: viability at 28.5 h, 10 µM; scope: individual molecules
Assay: in vitro
Settings: human, hela cells, % viability
Use % as the unit, but write only the number.

Consider the following illustrative entries.
// query Tell me the measured viability at 28.5 h, 10 µM of CC(=O)Nc1cccc(NC(=O)N2CCNC(=O)C2)c1 , please.
// result 77.7

// query Same for Cc1c(CN2CCC(N(C)CCN(C)C)CC2)oc2ccccc12
// result 86.1

// query Query O=C(CSc1nnc(-c2ccncc2)n1Cc1ccccc1)Nc1ccc(Cl)cc1 next
// result 97.3

Now let's try a different one.
// query Need viability at 28.5 h, 10 µM of COc1cccc(CN2CCN(C(=O)Cc3cccs3)[C@@H](C)C2)c1 , thanks.
// result 104

---

Assay: in vitro
Conditions: human, hela cells, % viability
measurement name: viability at 28.5 h, 10 µM (%)
Numeric only. Scale: %

Here is how some compounds turned out for viability at 28.5 h, 10 µM.
// query Param item = O=C(COc1ccc2ccccc2c1)N[C@@H](C(=O)O)c1ccc(O)cc1 ; retrieve measured viability at 28.5 h, 10 µM.
// result 88.8

// query How about Cn1ccc(CN2CCOC(c3nccs3)C2)cc1=O (stereo not shown) ?
// result 88.8

// query Would you mind doing Clc1ccc(C2N(Cc3ccccc3)CCC3CCCCN32)cc1Cl (stereo not shown) as well?
// result 86.6

---
// query Consider the compound shown here: Clc1cccc(-c2cccc(Nc3cccnc3)n2)c1Cl What is its recorded viability at 28.5 h, 10 µM?
// result 102

// query Same for Cc1cc(C(=O)N2CCC(C(=O)NC(c3cnccn3)c3ccccc3C)CC2)no1 (stereo not shown)
// result 93.6

// query Another compound to look at: CCCCSc1nnc2c(n1)OC(/C=C/c1ccc([N+](=O)[O-])o1)Nc1ccccc1-2 (stereo not shown)
// result 101

// query Follow-up entry: O=C(Nc1ccc(C(F)(F)F)cc1)c1cc(Br)cnc1NCc1cccnc1
// result 111

// query // query: O=C(CSc1nnc(-c2cccc(Br)c2)o1)Nc1cccc([N+](=O)[O-])c1
// result 101

// query Also O=C(c1cccnc1)N1CCC(c2cccc(Cc3ccc(C(F)(F)F)cc3)n2)CC1 ?
// result 95.4

// query And what about the compound CSc1nn(C)c(=O)c2c3c(sc12)CCC3 ?
// result 83.7

// query // same read-out, input: N/N=C1\C2CN3CCN(C2)CC1(Cc1ccccc1)C3
// result 91.8

---

Collected viability at 28.5 h, 10 µM values appear next to each entry.
Experiment: in vitro
Conditions: human, hela cells, % viability
Give a bare numeral; the unit % is implied.

// query Fill in: viability at 28.5 h, 10 µM of CON=Cc1c[nH]c2ccccc12 [CBK168628] is ___
// result 93.7

// query And for O=C(Nc1cccc(-c2nc3ncccc3o2)c1)c1cccnc1Cl [CBK058695] ?
// result 92

// query And what about the compound CC[C@H](Cn1nc(-c2cccs2)ccc1=O)NC(=O)C(C)C [CBK284296] ?
// result 93.7

// query Another compound to check: O=C1CC(C(=O)N2CCN(c3ncccn3)CC2)c2ccccc21 (stereo not shown) [CBK144505]
// result 99.2

// query Again, but for NC(=O)C1(N2CCCCC2)CCN(CC(=O)Nc2ccc(Oc3ccccc3)cc2)CC1 [CBK265774]
// result 107

// query Same read-out for Fc1ccccc1-c1nccnc1NCc1cccs1 [CBK038088] ?
// result 106

// query Again, but for COc1ccc2c(c1)C1(CC(=O)N(Cc3cccnc3)C1=O)C(=O)N2C (stereo not shown) [CBK075236]
// result 103

// query Same lookup for Nc1nnc(SCc2cccc3ccccc23)[nH]1 [CBK264830] , please.
// result 103

***
// query // viability at 28.5 h, 10 µM lookup, key: O=S(=O)(Nc1nnn[nH]1)c1ccc(-c2cnco2)s1 [CBK062394]
// result 109

// query Repeat with O=C(NC1CC2CCC(C1)N2Cc1ccccc1)c1ccc(Cl)cc1 (stereo not shown) [CBK120192]
// result 88.4

---

Assay: in vitro
Settings: human, hela cells, % viability
measurement name: viability at 28.5 h, 10 µM (%)
Please give a number only; it is taken to be in %.

// query viability at 28.5 h, 10 µM lookup needed for Cc1c(C(=O)C2=C(O)C(=O)N(Cc3cccnc3)C2c2cccnc2)cnn1-c1ccccc1 (stereo not drawn) , thanks.
// result 105

// query # repeat for O=C(NCCO)c1cccc(-c2cc(N3CCCC3CO)n3nccc3n2)c1 (stereo not drawn)
// result 96.7

// query And what about the molecule Cc1cc(C(F)(F)F)nn1CC(=O)Nc1sc2c(c1C#N)CCC(C)C2 (stereo not drawn) ?
// result 92.1

More entries:
// query State the recorded viability at 28.5 h, 10 µM for this entry: Cc1cc(C)c(NC(=O)CSc2nc(C)c(Cc3ccccc3)c(O)n2)c([N+](=O)[O-])c1
// result 86.8

// query What do you have for CC(C)(C)OC(=O)NCc1ccc(-c2cc(NC3CCCCC3)ncn2)cc1 ?
// result 98.5

// query Please answer likewise for O=C1NC/C=C/CC2(CCN(C(=O)c3cccnn3)CC2)C(=O)NCCOc2ccccc21
// result 108

// query Queued: C[C@@H](Nc1cncc(-c2cccc(N)c2)n1)c1ccccc1
// result 87.1

// query Input O=C(CCc1ccccc1)N1CCC(c2n[nH]c3ncccc23)CC1
// result 94.3

// query // same read-out, input: Cc1cc2cc(C(=O)NCC3(N(C)C)CCN(C)CC3)ccc2o1
// result 90.2

// query // next record CCOC(=O)c1ccccc1NC(=O)n1ccc2c(N3CCNCC3)cccc21 [CBK003731C]
// result 50.8

// query Quick one: Nc1ccc(S(=O)(=O)NC2(C(F)(F)F)NC(=O)N(c3ccccc3Cl)C2=O)cc1 (stereo not drawn)
// result 107

// query Same lookup for O=C1NC2(CCCC2)N=C1c1ccc(Cl)cc1Cl , please.
// result 82.4

// query Please answer likewise for O=C(NCCCn1cccc1)N1CCN(Cc2ccc(F)cc2)CC1
// result 107

// query Another molecule to check: CC(=O)c1cccc(-c2cnc(N)c(-c3ccc(O)cc3)n2)c1
// result 98.1

// query Here is the next molecule: COCCC(=O)N[C@H]1CC[C@]2(C)CCC([C@H](C)C(=O)N3CCC(C)CC3)[C@H](O)[C@H]2[C@@H]1C (stereo partly drawn)
// result 103

// query Next record, please: CS(=O)(=O)c1cc(Br)cc(C(=O)NCCNc2cnccn2)c1F
// result 85.8

// query Would you kindly repeat that for Cc1cc2nnn(C[C@@H](C)NC(=O)c3ccco3)c2cc1C ?
// result 100

// query Ok, now S=C(NCCc1c[nH]c2ccccc12)NCc1ccco1
// result 92.7
